Values were extracted from ChEMBL document CHEMBL3217565.

# system.tested: Mitogen-activated protein kinase 14 (Homo sapiens)
# Sequence (Q16539 whole entry): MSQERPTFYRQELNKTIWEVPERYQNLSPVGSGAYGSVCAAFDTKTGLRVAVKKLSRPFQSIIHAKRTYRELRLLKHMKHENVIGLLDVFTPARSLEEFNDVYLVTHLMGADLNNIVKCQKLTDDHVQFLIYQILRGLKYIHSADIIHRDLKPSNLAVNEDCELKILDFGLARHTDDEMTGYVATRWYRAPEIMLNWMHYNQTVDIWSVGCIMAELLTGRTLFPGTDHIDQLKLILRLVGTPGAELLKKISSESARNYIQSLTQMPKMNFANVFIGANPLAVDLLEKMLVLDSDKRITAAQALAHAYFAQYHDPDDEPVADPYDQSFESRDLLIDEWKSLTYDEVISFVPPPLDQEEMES
# run.description: Inhibition of p38-alpha MAPK (unknown origin) after 3 hrs
readout.name: IC50

- CSc1nc(-c2ccc(F)cc2)c(-c2ccnc(NC(=O)Cc3ccccc3)c2)n1C: 498 nM
- O=C(Cc1ccc(F)cc1)Nc1cc(-c2c(-c3ccc(F)cc3)nc3n2CCS3)ccn1: 46 nM
- CSc1nc(-c2ccc(F)cc2)c(-c2ccnc(NC(=O)c3ccc(F)cc3)c2)[nH]1: 44 nM
- O=C(Nc1cc(-c2c(-c3ccc(F)cc3)nc3n2CCS3)ccn1)c1ccco1: 140 nM
- CSc1nc(-c2ccc(F)cc2)c(-c2ccnc(NC(=O)C3CC3c3ccccc3)c2)n1C (centres undefined): 186 nM
- O=C(Nc1cc(-c2c(-c3ccc(F)cc3)nc3n2CCS3)ccn1)c1ccccc1: 83 nM
- CSc1nc(-c2ccc(F)cc2)c(-c2ccnc(NC(=O)c3ccccc3)c2)[nH]1: 19 nM
- Cc1ccc(C(=O)Nc2cc(-c3c(-c4ccc(F)cc4)nc4n3CCS4)ccn2)cc1F: 29 nM
- O=C(Nc1cc(-c2c(-c3ccc(F)cc3)nc3n2CCS3)ccn1)c1ccc(F)cc1: 36 nM

---

# system.tested: Mitogen-activated protein kinase 14 (Homo sapiens)
# run.description: Ratio of SB203580 IC50 to compound IC50 for p38-alpha MAPK (unknown origin)
Use 0.8 as the dividing line for Ratio IC50, with the line itself on the t side and lower values as f.

• CSc1nc(-c2ccc(F)cc2)c(-c2ccnc(NC(=O)c3ccco3)c2)n1C = f
• O=C(Cc1ccc(F)cc1)Nc1cc(-c2c(-c3ccc(F)cc3)nc3n2CCS3)ccn1 = t
• CSc1nc(-c2ccc(F)cc2)c(-c2ccnc(NC(=O)Cc3ccc(F)cc3)c2)[nH]1 = t
• CSc1nc(-c2ccc(F)cc2)c(-c2ccnc(NC(=O)C3CC3c3ccccc3)c2)[nH]1 (centres undefined) = t
• CSc1nc(-c2ccc(F)cc2)c(-c2ccnc(NC(=O)C3CC3c3ccccc3)c2)n1C (centres undefined) = f
• CSc1nc(-c2ccc(F)cc2)c(-c2ccnc(NC(=O)c3ccccc3)c2)n1C = f
• CSc1nc(-c2ccc(F)cc2)c(-c2ccnc(NC(=O)Cc3ccc(F)cc3)c2)n1C = f
• O=C(Nc1cc(-c2c(-c3ccc(F)cc3)nc3n2CCS3)ccn1)c1ccco1 = f
• CSc1nc(-c2ccc(F)cc2)c(-c2ccnc(NC(=O)c3cc4ccccc4o3)c2)n1C = f
• CSc1nc(-c2ccc(F)cc2)c(-c2ccnc(NC(=O)c3ccc(F)cc3)c2)[nH]1 = f
• O=C(Nc1cc(-c2c(-c3ccc(F)cc3)nc3n2CCS3)ccn1)c1ccccc1 = t
• CSc1nc(-c2ccc(F)cc2)c(-c2ccnc(NC(=O)c3cc4ccccc4o3)c2)[nH]1 = f
• O=C(Nc1cc(-c2c(-c3ccc(F)cc3)nc3n2CCS3)ccn1)c1cc2ccccc2o1 = f
• CSc1nc(-c2ccc(F)cc2)c(-c2ccnc(NC(=O)c3ccco3)c2)[nH]1 = t
• Cc1ccc(C(=O)Nc2cc(-c3c(-c4ccc(F)cc4)nc4n3CCS4)ccn2)cc1F = t
• CSc1nc(-c2ccc(F)cc2)c(-c2ccnc(NC(=O)c3ccc(C)c(F)c3)c2)[nH]1 = t
• CSc1nc(-c2ccc(F)cc2)c(-c2ccnc(NC(=O)Cc3ccccc3)c2)[nH]1 = t
• O=C(Nc1cc(-c2c(-c3ccc(F)cc3)nc3n2CCS3)ccn1)C1CC1c1ccccc1 (centres undefined) = t
• O=C(Cc1ccccc1)Nc1cc(-c2c(-c3ccc(F)cc3)nc3n2CCS3)ccn1 = t
• CSc1nc(-c2ccc(F)cc2)c(-c2ccnc(NC(=O)Cc3ccccc3)c2)n1C = f
• CSc1nc(-c2ccc(F)cc2)c(-c2ccnc(NC(=O)c3ccc(C)c(F)c3)c2)n1C = f
• CSc1nc(-c2ccc(F)cc2)c(-c2ccnc(NC(=O)c3ccc(F)cc3)c2)n1C = f
• CSc1nc(-c2ccc(F)cc2)c(-c2ccnc(NC(=O)c3ccccc3)c2)[nH]1 = t
• O=C(Nc1cc(-c2c(-c3ccc(F)cc3)nc3n2CCS3)ccn1)c1ccc(F)cc1 = t

---

# system.tested: Mitogen-activated protein kinase 14 (Homo sapiens)
# run.description: Inhibition of p38-alpha MAPK (unknown origin) after 3 hrs
Labelling: IC50 reported below 50 nM becomes satisfied; at or above becomes not satisfied.

* CSc1nc(-c2ccc(F)cc2)c(-c2ccnc(NC(=O)Cc3ccccc3)c2)[nH]1 | satisfied
* CSc1nc(-c2ccc(F)cc2)c(-c2ccnc(NC(=O)c3cc4ccccc4o3)c2)n1C | not satisfied
* O=C(Cc1ccccc1)Nc1cc(-c2c(-c3ccc(F)cc3)nc3n2CCS3)ccn1 | satisfied
* CSc1nc(-c2ccc(F)cc2)c(-c2ccnc(NC(=O)c3ccc(F)cc3)c2)n1C | not satisfied
* CSc1nc(-c2ccc(F)cc2)c(-c2ccnc(NC(=O)c3ccc(C)c(F)c3)c2)n1C | not satisfied
* O=C(Nc1cc(-c2c(-c3ccc(F)cc3)nc3n2CCS3)ccn1)c1cc2ccccc2o1 | not satisfied
* CSc1nc(-c2ccc(F)cc2)c(-c2ccnc(NC(=O)C3CC3c3ccccc3)c2)[nH]1 (stereo not given) | satisfied
* CSc1nc(-c2ccc(F)cc2)c(-c2ccnc(NC(=O)c3ccco3)c2)n1C | not satisfied
* CSc1nc(-c2ccc(F)cc2)c(-c2ccnc(NC(=O)c3ccccc3)c2)n1C | not satisfied
* O=C(Nc1cc(-c2c(-c3ccc(F)cc3)nc3n2CCS3)ccn1)C1CC1c1ccccc1 (stereo not given) | satisfied
